Data provenance: paper PMC10786891

Recorded Kd, one value per entry.
# Assayed system: T1, EsCas13d, nuclease-dead (Eubacterium siraeum, UniProt B0MS50, R295A;H300A;R849A;H854A)
# T1 sequence: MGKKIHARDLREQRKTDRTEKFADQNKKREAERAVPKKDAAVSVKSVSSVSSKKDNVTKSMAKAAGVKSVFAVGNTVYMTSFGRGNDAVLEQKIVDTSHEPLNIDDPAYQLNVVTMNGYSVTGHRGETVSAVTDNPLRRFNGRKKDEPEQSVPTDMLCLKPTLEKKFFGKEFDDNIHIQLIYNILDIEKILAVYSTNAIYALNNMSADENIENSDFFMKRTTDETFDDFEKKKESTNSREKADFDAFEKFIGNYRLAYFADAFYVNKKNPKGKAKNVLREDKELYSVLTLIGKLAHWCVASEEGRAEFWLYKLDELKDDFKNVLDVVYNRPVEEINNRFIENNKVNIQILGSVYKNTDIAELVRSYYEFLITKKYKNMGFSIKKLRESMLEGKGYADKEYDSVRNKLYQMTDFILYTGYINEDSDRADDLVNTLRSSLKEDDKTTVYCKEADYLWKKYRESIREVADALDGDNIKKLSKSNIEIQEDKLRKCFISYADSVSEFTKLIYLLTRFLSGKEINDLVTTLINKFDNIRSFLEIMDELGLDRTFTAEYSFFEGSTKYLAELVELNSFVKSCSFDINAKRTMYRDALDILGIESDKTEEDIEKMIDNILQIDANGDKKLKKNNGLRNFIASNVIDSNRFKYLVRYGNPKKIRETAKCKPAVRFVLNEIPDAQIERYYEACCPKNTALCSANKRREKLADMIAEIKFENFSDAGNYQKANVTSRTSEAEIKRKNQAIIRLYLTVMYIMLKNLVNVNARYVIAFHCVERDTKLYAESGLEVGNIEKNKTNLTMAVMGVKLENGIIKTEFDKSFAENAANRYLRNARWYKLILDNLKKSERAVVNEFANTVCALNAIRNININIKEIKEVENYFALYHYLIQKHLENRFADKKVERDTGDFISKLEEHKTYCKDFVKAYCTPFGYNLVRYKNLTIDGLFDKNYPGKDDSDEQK
# Protocol notes: crRNA (strand 1, pre-loaded); Mg2+; 40 mM Tris-HCl pH 7.5, 150 mM NaCl, 6 mM MgCl2, 1 mM DTT, 0.1% Tween-20, 0.2 mg/ml BSA; 25 C; 10 min per concentration, then washed
# Setup conditions: tags: His6-TwinStrep-SUMO cleaved; N-terminal SNAP kept (SNAP-Surface 488); label: 3' end held by stalled T7 RNA polymerase
Respond numerically; units are nM and should not be typed.

Answered cases to consult:
# Binder, Readout unit, Measured value
rows = [
    ("target 1 A1C,C4A (mixed) RNA 1: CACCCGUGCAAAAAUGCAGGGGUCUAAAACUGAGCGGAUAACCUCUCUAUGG RNA 2: GGGAAUGGAUCCACAUCUACGAAUUCGUACCAUAGAGAGGUUAUCCGAUCCCCGAGAUCGGAAGAGCACACGU", "nM", 7.5),
    ("target 1 insC 3' of 20,insU 3' of 4 (mixed) RNA 1: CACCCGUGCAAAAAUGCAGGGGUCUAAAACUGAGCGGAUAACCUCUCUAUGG RNA 2: GGGAAUGGAUCCACAUCUACGAAUUCGUACCACUAGAGAGGUUAUCCGCUUCACCGAGAUCGGAAGAGCACACGU", "nM", 9.1),
]

Value lookup for Kd; key = target 3 A5U,A18G (mixed) RNA 1: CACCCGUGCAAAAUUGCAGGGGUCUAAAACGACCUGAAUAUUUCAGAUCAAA RNA 2: GGGAAUGGAUCCACAUCUACGAAUUCGUUUUUGGUCUGAAAUAUUCUGGUCUGCAGAUCGGAAGAGCACACGU
117

Data request, read-out Kd, for target 1 MT 5'PFS AGG 3'PFS ACC (mixed) RNA 1: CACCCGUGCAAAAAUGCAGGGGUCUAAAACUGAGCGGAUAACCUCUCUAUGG RNA 2: GGGAAUGGAUCCACAUCUACGAAUUCAGGCCAUAGAGAGGUUAUCCGCUCAACCAGAUCGGAAGAGCACACGU
46.5

Recorded Kd of target 1 MT 5'PFS GGG 3'PFS ACG (mixed) RNA 1: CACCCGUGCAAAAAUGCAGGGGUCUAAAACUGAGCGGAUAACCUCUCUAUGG RNA 2: GGGAAUGGAUCCACAUCUACGAAUUCGGGCCAUAGAGAGGUUAUCCGCUCAACGAGAUCGGAAGAGCACACGU , please.
17.5

Which measured Kd value corresponds to target 2 MT 5'PFS GUA 3'PFS AAA (mixed) RNA 1: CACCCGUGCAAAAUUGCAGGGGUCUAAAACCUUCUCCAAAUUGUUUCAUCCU RNA 2: GGGAAUGGAUCCACAUCUACGAAUUCGUAAGGAUGAAACAAUUUGGAGAAGAAAAGAUCGGAAGAGCACACGU ?
5.5

// lookup Kd for target 1 insC 3' of 22,insC 3' of 13 (mixed) RNA 1: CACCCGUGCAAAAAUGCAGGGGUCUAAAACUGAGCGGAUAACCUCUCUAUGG RNA 2: GGGAAUGGAUCCACAUCUACGAAUUCGUACCCAUAGAGAGCGUUAUCCGCUCACCGAGAUCGGAAGAGCACACGU
43

Entry under review: target 1 MT 5'PFS UGC 3'PFS UGU (mixed) RNA 1: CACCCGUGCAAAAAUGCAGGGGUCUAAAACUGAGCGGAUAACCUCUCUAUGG RNA 2: GGGAAUGGAUCCACAUCUACGAAUUCUGCCCAUAGAGAGGUUAUCCGCUCAUGUAGAUCGGAAGAGCACACGU . Reported Kd?
38
